The entries below come with measured inhibition at 1 pM values attached.
Biological target: HGFR (Homo sapiens)
Construct: purchased Upstate 14-526
Sequence (P08581 974-1390 limits assumed): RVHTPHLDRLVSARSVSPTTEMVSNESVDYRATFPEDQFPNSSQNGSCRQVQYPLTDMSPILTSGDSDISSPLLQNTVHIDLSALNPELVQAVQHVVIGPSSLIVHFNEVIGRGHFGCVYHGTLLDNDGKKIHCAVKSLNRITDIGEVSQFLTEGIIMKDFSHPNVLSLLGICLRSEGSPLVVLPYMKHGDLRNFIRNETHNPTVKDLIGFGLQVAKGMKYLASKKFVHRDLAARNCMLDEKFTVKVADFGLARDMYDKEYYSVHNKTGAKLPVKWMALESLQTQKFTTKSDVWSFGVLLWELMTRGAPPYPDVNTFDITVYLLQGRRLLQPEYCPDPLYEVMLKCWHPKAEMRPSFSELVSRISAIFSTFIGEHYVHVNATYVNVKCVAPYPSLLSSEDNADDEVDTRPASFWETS
Experiment: HGFR continuous-coupled spectrophotometric assay
Type: biochemical
Conditions: at 1 pM; Table 7, library procedure 42; read-out: % Inhibition (percent c-MET inhibition)

COMPOUND_STRING	SYSTEM_NAME	inhibition at 1 pM, %
Cn1nc(C(F)(F)F)c2cc(COc3cc(-c4ccc(C(=O)N5CCC(N6CCCC6)CC5)cc4)cnc3N)sc21	HGFR (Homo sapiens)	14
COc1cccc(COc2cc(-c3ccc(C(=O)N4CCC(N5CCCC5)CC4)cc3)cnc2N)c1	HGFR (Homo sapiens)	15
Cc1[nH]cnc1COc1cc(-c2ccc(C(=O)N3CCC(N4CCCC4)CC3)cc2)cnc1N	HGFR (Homo sapiens)	12
Nc1ncc(-c2ccc(C(=O)N3CCC(N4CCCC4)CC3)cc2)cc1OCc1ccc(OC(F)(F)F)cc1	HGFR (Homo sapiens)	20
Nc1ncc(-c2ccc(C(=O)N3CCC(N4CCCC4)CC3)cc2)cc1OCc1nc2cc(C(F)(F)F)ccc2s1	HGFR (Homo sapiens)	34
CC(C)NC(=O)c1ccc(-c2noc(COc3cc(-c4ccc(C(=O)N5CCC(N6CCCC6)CC5)cc4)cnc3N)n2)cc1	HGFR (Homo sapiens)	18
Nc1ncc(-c2ccc(C(=O)N3CCC(N4CCCC4)CC3)cc2)cc1OCc1cccc(C(=O)NC2CCN(Cc3ccccc3)CC2)c1	HGFR (Homo sapiens)	13
CCOC(=O)CCNS(=O)(=O)c1ccc(COc2cc(-c3ccc(C(=O)N4CCC(N5CCCC5)CC4)cc3)cnc2N)cc1	HGFR (Homo sapiens)	15

Entry source: patent US20050009840A1
